Study system: MAPKAPK3 (human)
Assay: radiometric filter-binding kinase assay
Particulars: compound 1.0 µM; ATP 20 µM
Metric: residual activity (%)
Numbers only, in %.

O=S(=O)(NCCNC/C=C/c1ccc(Br)cc1)c1cccc2cnccc12: 105
CC(C)(N)c1ccc(-c2nc3ccccc3nc2-c2ccccc2)cc1: 86
COC[C@H]1OC(=O)c2coc3c2[C@@]1(C)C1=C(C3=O)[C@@H]2CCC(=O)[C@@]2(C)C[C@H]1OC(C)=O: 98
CO[C@H]1CC2CC[C@@H](C)[C@@](O)(O2)C(=O)C(=O)N2CCCC[C@H]2C(=O)OC([C@H](C)C[C@@H]2CC[C@@H](O)[C@H](OC)C2)CC(=O)[C@H](C)/C=C(\C)[C@@H](O)[C@@H](OC)C(=O)[C@H](C)C[C@H](C)/C=C/C=C/C=C/1C (stereo partly specified): 104
COc1ccc2c(c1)=NC1=C(C)NCCC=21: 97

Please look at the following molecule next.
Reported residual activity for O=C1c2ccccc2-c2n[nH]c3cccc1c23 was 103

Values from the kinase profiling compilation of Christmann-Franck et al. (2016)
